- Tested on: ragweed (common ragweed, Ambrosia elatior)
- assay.details: Test A preemergence, visual plant response rating
- Type: in vivo
- assay.setup: 125 g ai/ha, preemergence; 0 to 100 scale, 0 no effect, 100 complete control
// label = MET if Ragweed plant response rating is not less than 60, otherwise NOT MET

These solved cases illustrate the format of a correct answer.
CON=C(c1c(O)c(C)nn(C)c1=O)c1cccc2ccsc12 (single isomer, unassigned) [Compound 47]
MET
C#CCO/N=C(\c1c(O)c(C)nn(C)c1=O)c1cccc2ccccc12 [Compound 83]
MET
CCc1cccc(C(=NOC)c2c(O)c(C)nn(C)c2=O)c1 [Compound 36]
NOT MET
CCO/N=C(/c1c(O)c(Cl)nn(C)c1=O)c1cccc2ccccc12 [Compound 147]
MET
CO/N=C(\c1c(C)cccc1F)c1c(O)c(C)nn(C)c1=O [Compound 39]
NOT MET

Tell me whether Ragweed plant response rating is at least 60 here: CO/N=C(/c1c(O)c(C)nn(C)c1=O)c1ccc(OC)c2ccccc12 [Compound 142]
NOT MET

Tell me whether Ragweed plant response rating is at least 60 here: CCO/N=C(/c1c(O)c(C)nn(C)c1=O)c1cc(Br)cc2ccccc12 [Compound 113]
MET

Tell me whether Ragweed plant response rating is at least 60 here: CON=C(c1c(O)c(C)nn(C)c1=O)c1ccc(Cl)c2ccccc12 [Compound 130]
NOT MET
